- condition label: PAMPA
Where a SMILES comes first, the peptide text is derived from it. [ ]: non-standard residue; d: D form. NMeF = CN[C@@H](Cc1ccccc1)C(=O)O; NMeL = CN[C@@H](CC(C)C)C(=O)O; dNMeL = CN[C@H](CC(C)C)C(=O)O; NMeA = CN[C@@H](C)C(=O)O; Nle = CCCC[C@H](N)C(=O)O; dNMeA = CN[C@H](C)C(=O)O; Aib = CC(C)(N)C(=O)O
property name: PAMPA_Papp_Avg (apparent permeability) (×10⁻⁶ cm/s)
Numbers only here, please. The scale is ×10⁻⁶ cm/s.

compound	result unit	PAMPA_Papp_Avg (apparent permeability)
CC[C@H](C)[C@@H]1NC(=O)[C@@H](C(C)C)NC(=O)[C@H](CC(C)C)N(C)C(=O)[C@H]2CCCN2C(=O)[C@H]2CCCN2C(=O)[C@H](C(C)C)NC(=O)[C@@H](CC(C)C)NC(=O)[C@H]2CCCN2C1=O [Design D8.16, plVpp*LvI] (cyclo(I[dP][dL]V[dP][dP][NMeL][dV]))	×10⁻⁶ cm/s	2.16

q: Value lookup for PAMPA_Papp_Avg (apparent permeability); key = CC[C@H](C)[C@@H]1NC(=O)[C@H](Cc2ccccc2)N(C)C(=O)[C@H]2CCCN2C(=O)[C@H]([C@@H](C)CC)NC(=O)[C@H](C(C)C)NC(=O)[C@@H](C)NC(=O)[C@H]2CCCN2C1=O [Design D7.9, VIp*FIpa] (cyclo(I[dP][NMeF]I[dP][dA]V))
a: 7.09

q: Now give it for CC[C@H](C)[C@@H]1NC(=O)[C@@H](CC(C)C)N(C)C(=O)[C@@H]2CCCN2C(=O)[C@H](C(C)C)NC(=O)C(C)(C)NC(=O)[C@H](CC(C)C)NC(=O)C(C)(C)NC(=O)[C@@H]2CCCN2C(=O)[C@H]2CCCN2C1=O [Design D9.1, pPBLBVP*lI] (cyclo([Aib]L[Aib]VP[dNMeL]I[dP]P)) too.
a: 1.59

q: Now give it for CC(C)C[C@@H]1NC(=O)[C@@H](CC(C)C)NC(=O)[C@@H]2CCCN2C(=O)[C@@H](CC(C)C)NC(=O)[C@H](C)N(C)C(=O)[C@H](C)NC(=O)[C@H](CC(C)C)N(C)C(=O)[C@@H]2CCCN2C(=O)[C@H](CC(C)C)NC(=O)[C@H](CC(C)C)N(C)C1=O [Design D10.16, lL*LLP*LA*AlP] (cyclo(A[NMeA][dL]P[dL]L[NMeL]LP[NMeL])) too.
a: 2.27

q: Now give it for CCCC[C@@H]1NC(=O)[C@H]2CCCN2C(=O)[C@H](C(C)C)NC(=O)[C@@H](CC(C)C)N(C)C(=O)[C@H](Cc2ccccc2)NC(=O)[C@H](CC(C)C)NC(=O)[C@@H](CC(C)C)N(C)C(=O)[C@@H]2CCCN2C(=O)[C@@H](CC(C)C)NC1=O [Design D9.40, pMlP*lLF*lV] (cyclo(F[dNMeL]V[dP][Nle][dL]P[dNMeL]L)) too.
a: 0.238

q: Now give it for CCCC[C@@H]1NC(=O)[C@H](C(C)C)NC(=O)[C@H]2CCCN2C(=O)[C@@H]2CCCN2C(=O)[C@H](C)NC(=O)[C@@H](C)N(C)C(=O)[C@@H](CC(C)C)N(C)C(=O)[C@@H](C(C)C)NC(=O)[C@@H]2CCCN2C1=O [Design D9.21, APpVMPv*l*a] (cyclo(AP[dP]V[Nle]P[dV][dNMeL][dNMeA])) too.
a: 0.294
